src = patent US6716833B2

- Test system: TNF-α converting enzyme (TACE) (Homo sapiens)
- Test protocol: TACE inhibition (fluorescent peptidyl substrate)
- Assay type: biochemical
- Condition parameters: IC 50 nM (In Vitro Inhibition of TACE), Table 15
Assay readout: IC50 (nM)

> print(dat)
                           smiles.structure  assay.readout  quantity.unit  test.result
1  CC#CCOc1ccc(S(=O)(=O)N[C@H](CCCNC(=N)NS(=O)(=O)c2c(C)cc(OC)c(C)c2C)C(=O)NO)cc1           IC50             nM         29.3
2  CC#CCOc1ccc(S(=O)(=O)N[C@H](CCC)C(=O)NO)cc1           IC50             nM          6.3
3  CC#CCOc1ccc(S(=O)(=O)N[C@H](CSCNC(C)=O)C(=O)NO)cc1           IC50             nM           11
4  CC#CCOc1ccc(S(=O)(=O)N[C@H](CCCNC(=O)c2ccc(Cl)cc2)C(=O)NO)cc1           IC50             nM          4.7

---

- Test system: TNF-α converting enzyme (TACE) (Homo sapiens, UniProt P78536)
- Sequence (P78536 215-824, species assumed): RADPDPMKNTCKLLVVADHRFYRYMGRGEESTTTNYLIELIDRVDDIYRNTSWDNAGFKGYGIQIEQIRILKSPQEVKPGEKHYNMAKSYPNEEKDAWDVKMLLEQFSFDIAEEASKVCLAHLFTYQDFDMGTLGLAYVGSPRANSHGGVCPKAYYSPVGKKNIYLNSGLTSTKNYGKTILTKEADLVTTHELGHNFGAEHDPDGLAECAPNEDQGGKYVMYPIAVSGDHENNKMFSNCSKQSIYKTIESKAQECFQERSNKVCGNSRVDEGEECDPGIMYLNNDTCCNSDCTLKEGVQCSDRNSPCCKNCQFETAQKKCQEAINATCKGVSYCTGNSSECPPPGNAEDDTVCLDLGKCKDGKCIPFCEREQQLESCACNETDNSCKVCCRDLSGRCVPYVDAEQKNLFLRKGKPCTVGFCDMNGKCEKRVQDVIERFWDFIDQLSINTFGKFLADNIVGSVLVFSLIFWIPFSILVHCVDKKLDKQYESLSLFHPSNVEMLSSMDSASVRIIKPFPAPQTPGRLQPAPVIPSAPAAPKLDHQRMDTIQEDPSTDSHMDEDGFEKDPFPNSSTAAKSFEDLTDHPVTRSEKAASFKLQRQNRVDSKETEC
- Test protocol: TACE inhibition (fluorescent peptidyl substrate)
- Assay type: biochemical
- Condition parameters: read-out: TACE IC50
Checkbox rule: IC50 lower than 100 nM = Criterion met; IC50 not lower than 100 nM = Criterion not met.

> print(dat)
                                   compound   class.assignment
1  CC#CCOc1ccc(S(=O)(=O)NC(C(=O)NO)c2ccc(OCCN(C)C(=O)OC(C)(C)C)cc2)cc1 (stereo not drawn) [Example 203]      Criterion met
2  CC#CCOc1ccc(S(=O)(=O)N(CCCc2ccccc2)C(C(=O)NO)C(C)C)cc1 (stereo not drawn) [Example 111]  Criterion not met
3  CC#CCOc1ccc(S(=O)(=O)N2CCN(C(=O)OC(C)(C)C)CCC2C(=O)NO)cc1 (stereo not drawn) [Example 291]      Criterion met
4  CC#CCOc1ccc(S(=O)(=O)N2CCN(C(=O)N(CC)CC)CC2C(=O)NO)cc1 (stereo not drawn) [Example 216]      Criterion met
5  CC#CCOc1ccc(S(=O)(=O)N2CCN(Cc3ccc(Br)cc3)CC2C(=O)NO)cc1 (stereo not drawn) [Example 233]  Criterion not met
6  CC#CCOc1ccc(S(=O)(=O)N(C)C(C(=O)NO)C(C)(C)SCCCN2CCOCC2)cc1 (stereo not drawn) [Example 146]  Criterion not met

---

Where a name gives a salt, the structure may show the parent alone.

Compound	melting point
CC#CCOc1ccc(S(=O)(=O)N(Cc2cccnc2)C2(C(=O)NO)CCCCC2)cc1	179 to 181 °C
CC#CCOc1ccc(S(=O)(=O)NC(C(=O)NO)C(C)(C)SCc2nccn2C)cc1 (centres unmarked)	112 to 115 °C
CC#CCOc1ccc(S(=O)(=O)NC(C(=O)NO)c2ccc(OCCN3CCCC3)cc2)cc1 (centres unmarked) (as salt: hydrochloride)	70 °C
CC#CCOc1ccc(S(=O)(=O)N(C)C(C(=O)NO)C(C)(C)SCCCN2CCN(C)CC2)cc1 (centres unmarked)	58 to 62 °C
CC#CCOc1ccc(S(=O)(=O)N(C)C(C(=O)NO)c2ccc(OCCN(C)C(=O)OC(C)(C)C)cc2)cc1 (centres unmarked)	62 °C (dec.)
CC#CCOc1ccc(S(=O)(=O)N(C)C(CCCSc2ccc(Cl)cc2)C(=O)NO)cc1 (centres unmarked)	144 to 145.5 °C
CC#CCOc1ccc(S(=O)(=O)N(C)C(C(=O)NO)c2ccc(OCCCNC(C)=O)cc2)cc1 (centres unmarked)	88 °C (dec.)
CC#CCOc1ccc(S(=O)(=O)N(C)C(C(=O)NO)c2ccc(OCCCNC(=O)OCC)cc2)cc1 (centres unmarked)	60 to 62 °C
CC#CCOc1ccc(S(=O)(=O)N[C@@H](C(=O)NO)C2CCC(O)CC2)cc1 (some centres unmarked)	180 to 182 °C
CC#CCOc1ccc(S(=O)(=O)NC2(C(=O)NO)CCCC2)cc1	66 to 68 °C
CC#CCOc1ccc(S(=O)(=O)N(C)C(C(=O)NO)C(C)(C)SCC(C)N(CC)CC)cc1 (centres unmarked)	65 to 68 °C
CC#CCOc1ccc(S(=O)(=O)N(C)C(C(=O)NO)c2ccc(Cl)cc2)cc1 (centres unmarked)	170 to 172 °C
CC#CCOc1ccc(S(=O)(=O)NC(C(=O)NO)C(C)(C)SCc2ccccc2)cc1 (centres unmarked)	92 to 95 °C
CC#CCOc1ccc(S(=O)(=O)N(C)C(C(=O)NO)C(C)(C)SCCN2CCCC2)cc1 (centres unmarked)	55 to 57 °C
CC#CCOc1ccc(S(=O)(=O)N(C)C(C(=O)NO)c2ccc(OCCCNC(=O)OCc3ccccc3)cc2)cc1 (centres unmarked)	48 to 50 °C
CC#CCOc1ccc(S(=O)(=O)N2CCSCCC2C(=O)NO)cc1 (centres unmarked)	95 to 98 °C
CC#CCOc1ccc(S(=O)(=O)NC(C(=O)NO)C(C)(C)SCC(=O)OC(C)(C)C)cc1 (centres unmarked)	47 to 52 °C
CC#CCOc1ccc(S(=O)(=O)N(C)C(C(=O)NO)c2ccc(OCCCNC(=O)Nc3ccccc3)cc2)cc1 (centres unmarked)	135 °C (dec.)
CC#CCOc1ccc(S(=O)(=O)NC(C(=O)NO)C(C)(C)SCC(=O)O)cc1 (centres unmarked) (as salt: sodium) [Example 166, Acetic Acid, Sodium Salt]	75 °C (dec.)
CC#CCOc1ccc(S(=O)(=O)N(C)C(C(=O)NO)C(C)(C)SCCCN2CCOCC2)cc1 (centres unmarked)	48 to 52 °C
CC#CCOc1ccc(S(=O)(=O)NC(C(=O)NO)C(C)(C)SCCN2CCOCC2)cc1 (centres unmarked)	72 °C
CC#CCOc1ccc(S(=O)(=O)N[C@@H](C(=O)NO)C(C)(C)SC)cc1	128 to 132 °C
CC#CCOc1ccc(S(=O)(=O)N(C)C2(C(=O)NO)CCCCC2)cc1	89 to 92 °C
CC#CCOc1ccc(S(=O)(=O)NC(C(=O)NO)c2ccc(OCCN3CCN(C(=O)OC(C)(C)C)CC3)cc2)cc1 (centres unmarked)	92 to 95 °C
CC#CCOc1ccc(S(=O)(=O)N(C)C(C(=O)NO)C(C)(C)SC)cc1 (centres unmarked)	132 to 135 °C
CC#CCOc1ccc(S(=O)(=O)NC(C(=O)NO)c2ccc(OCCN3CCOCC3)cc2)cc1 (centres unmarked)	80 to 86 °C

---

- Test system: MMP-9 (Homo sapiens)
- Sequence (P14780 94-707): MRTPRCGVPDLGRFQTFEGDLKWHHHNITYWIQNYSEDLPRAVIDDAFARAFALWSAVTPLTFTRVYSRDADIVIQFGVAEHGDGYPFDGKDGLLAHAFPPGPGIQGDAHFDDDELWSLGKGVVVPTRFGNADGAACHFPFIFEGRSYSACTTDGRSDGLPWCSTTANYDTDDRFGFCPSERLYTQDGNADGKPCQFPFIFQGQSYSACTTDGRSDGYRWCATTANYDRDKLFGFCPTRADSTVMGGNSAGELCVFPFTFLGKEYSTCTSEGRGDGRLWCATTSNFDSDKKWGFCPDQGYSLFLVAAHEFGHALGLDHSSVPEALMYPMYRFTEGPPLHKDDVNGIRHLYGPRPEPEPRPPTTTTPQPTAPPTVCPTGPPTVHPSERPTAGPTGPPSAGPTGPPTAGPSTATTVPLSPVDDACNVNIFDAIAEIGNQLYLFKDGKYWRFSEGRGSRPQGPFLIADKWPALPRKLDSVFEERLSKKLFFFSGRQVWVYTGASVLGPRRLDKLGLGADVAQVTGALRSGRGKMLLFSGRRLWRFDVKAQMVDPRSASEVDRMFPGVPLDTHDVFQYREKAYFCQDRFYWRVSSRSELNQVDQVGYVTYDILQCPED
- Test protocol: MMP-9 inhibition (thiopeptide or fluorescent peptide substrate)
- Format: biochemical
- Condition parameters: read-out: MMP-9 IC50
Assay readout: IC50 (nM)

> print(dat)
                                   compound  test.result
1  CC#CCOc1ccc(S(=O)(=O)NC(C(=O)NO)C(C)(C)SCCN2CCOCC2)cc1 (stereo not shown) [Example 164]          204
2  CC#CCOc1ccc(S(=O)(=O)N2CCN(C(=O)CN)CC2C(=O)NO)cc1 (stereo not shown) [Example 230]         1230
3  CC#CCOc1ccc(S(=O)(=O)N2CCNCC2C(=O)NO)cc1 (stereo not shown) [Example 214]           14
4  CC#CCOc1ccc(S(=O)(=O)N(C)C(C(=O)NO)C2CCCCC2)cc1 (stereo not shown) [Example 115]           14

---

- Test system: TNF-α converting enzyme (TACE) (Homo sapiens, UniProt P78536)
- Test protocol: TACE inhibition (fluorescent peptidyl substrate)
- Format: biochemical
- Condition parameters: read-out: TACE IC50
Kindly apply the following: Fulfilled if IC50 is less than 20 nM, Not fulfilled in every other case.

> print(dat)
                                   molecule  class.assignment
1  CC#CCOc1ccc(S(=O)(=O)N(C)C(C(=O)NO)c2ccc(OCCN3CCCC3)cc2)cc1 (centres unmarked)     Not fulfilled
2  CC#CCOc1ccc(S(=O)(=O)N2CCNCCC2C(=O)NO)cc1 (centres unmarked)     Not fulfilled
3  CC#CCOc1ccc(S(=O)(=O)N[C@@H](C(=O)NO)C(C)(C)SC)cc1     Not fulfilled
4  CC#CCOc1ccc(S(=O)(=O)NC(C(=O)NO)C(C)(C)SCc2cccnc2)cc1 (centres unmarked)         Fulfilled
5  CC#CCOc1ccc(S(=O)(=O)N[C@@H](C(=O)NO)C(C)(C)C)cc1         Fulfilled

---

- Test system: TNF-α converting enzyme (TACE) (Homo sapiens)
- Test protocol: TACE inhibition (fluorescent peptidyl substrate)
- Format: biochemical
- Condition parameters: read-out: TACE IC50
Counter-ions that a name gives are not always drawn.
In this section we review reported IC50 values for a set of compounds.
Assay readout: IC50

> print(dat)
                                    compound  assay.readout  test.result
 1  CC#CCOc1ccc(S(=O)(=O)NC(C(=O)NO)C(C)C)cc1 (stereo not shown) [Example 27]           IC50        32 nM
 2  CC#CCOc1ccc(S(=O)(=O)N2CCN(C(=O)Nc3ccc(F)cc3)CC2C(=O)NO)cc1 (stereo not shown) [Example 222]           IC50        30 nM
 3  CC#CCOc1ccc(S(=O)(=O)N(CC2CC2)C(C(=O)NO)C(C)C)cc1 (stereo not shown) [Example 112]           IC50        57 nM
 4  CC#CCOc1ccc(S(=O)(=O)N(C)C(C(=O)NO)C(C)C)cc1 (stereo not shown) [Example 9]           IC50       7.4 nM
 5  CC#CCOc1ccc(S(=O)(=O)N2CCN(C)CC2C(=O)NO)cc1 (stereo not shown) [Example 56, Hydrochloride]           IC50        41 nM
 6  CC#CCOc1ccc(S(=O)(=O)N(C)CC(=O)NO)cn1 [Example 131]           IC50        29 nM
 7  CC#CCOc1ccc(S(=O)(=O)N(C)C(C(=O)NO)c2ccc(OCCN3CCOCC3)cc2)cc1 (stereo not shown) [Example 179]           IC50        52 nM
 8  CC#CCOc1ccc(S(=O)(=O)N(C)C(C(=O)NO)C(C)(C)SCCN2CCOCC2)cc1 (stereo not shown) [Example 140, Hydrochloride]           IC50        86 nM
 9  CC#CCOc1ccc(S(=O)(=O)N(C)C(C(=O)NO)c2ccc(OCCNC(=O)OC(C)(C)C)cc2)cc1 (stereo not shown) [Example 180]           IC50       265 nM
10  CC#CCOc1ccc(S(=O)(=O)N(C)C(C(=O)NO)C2CCCCC2)cc1 (stereo not shown) [Example 115]           IC50        31 nM
11  CC#CCOc1ccc(S(=O)(=O)N(C)C(C(=O)NO)c2ccc(OCCCNC(=O)OCCCC)cc2)cc1 (stereo not shown) [Example 195]           IC50       122 nM
12  CC#CCOc1ccc(S(=O)(=O)NC2(C(=O)NO)CCCCC2)cc1 [Example 138]           IC50        27 nM
13  CC#CCOc1ccc(S(=O)(=O)N(C)C(C(=O)NO)C(C)(C)SCc2ccccc2)cc1 (stereo not shown) [Example 153]           IC50       160 nM
14  CC#CCOc1ccc(S(=O)(=O)N(C)C(C(=O)NO)C(C)(C)SCCN2CCN(C)CC2)cc1 (stereo not shown) [Example 141]           IC50       101 nM
15  CC#CCOc1ccc(S(=O)(=O)NC(C(=O)NO)c2ccc(OCCOCCOC)cc2)cc1 (stereo not shown) [Example 210]           IC50        17 nM
16  CC#CCOc1ccc(S(=O)(=O)N2CCN(C(=O)CC)CC2C(=O)NO)cc1 (stereo not shown) [Example 225]           IC50        17 nM
